- measured.on: UniProtKB Q9Y2I7
- method: PIKfyve EEA1 Assay (endosomal vesicle enlargement, high content imaging in U2OS cells)
- Type: cell-based
- settings: 3 hours of treatment, activity relative to maximal APY0201 activity
endpoint.label: IC50

[[record]]
sample_smiles = "COc1c(Nc2ccncc2)nc(N2CCCC2=O)nc1-c1cccc(-c2ccn(C)n2)c1"
endpoint_label = "IC50"
observed_value = "> 10 µM"


Here is another compound to look at.
In plain terms, "COc1c(Nc2ccncc2)nc(N2CCOCC2)nc1-c1cccc(-n2ccc(C)n2)c1" has a documented IC50 of 0.01 to 0.1 µM

----------
- measured.on: full-length human PIKFYVE (Homo sapiens (Human), UniProt Q9Y2I7, L932S/Q1183K/Q995L/S1033A/S696N/T998S)
- Sequence (Q9Y2I7 whole entry S696N/L932S/Q995L/T998S/S1033A/Q1183K): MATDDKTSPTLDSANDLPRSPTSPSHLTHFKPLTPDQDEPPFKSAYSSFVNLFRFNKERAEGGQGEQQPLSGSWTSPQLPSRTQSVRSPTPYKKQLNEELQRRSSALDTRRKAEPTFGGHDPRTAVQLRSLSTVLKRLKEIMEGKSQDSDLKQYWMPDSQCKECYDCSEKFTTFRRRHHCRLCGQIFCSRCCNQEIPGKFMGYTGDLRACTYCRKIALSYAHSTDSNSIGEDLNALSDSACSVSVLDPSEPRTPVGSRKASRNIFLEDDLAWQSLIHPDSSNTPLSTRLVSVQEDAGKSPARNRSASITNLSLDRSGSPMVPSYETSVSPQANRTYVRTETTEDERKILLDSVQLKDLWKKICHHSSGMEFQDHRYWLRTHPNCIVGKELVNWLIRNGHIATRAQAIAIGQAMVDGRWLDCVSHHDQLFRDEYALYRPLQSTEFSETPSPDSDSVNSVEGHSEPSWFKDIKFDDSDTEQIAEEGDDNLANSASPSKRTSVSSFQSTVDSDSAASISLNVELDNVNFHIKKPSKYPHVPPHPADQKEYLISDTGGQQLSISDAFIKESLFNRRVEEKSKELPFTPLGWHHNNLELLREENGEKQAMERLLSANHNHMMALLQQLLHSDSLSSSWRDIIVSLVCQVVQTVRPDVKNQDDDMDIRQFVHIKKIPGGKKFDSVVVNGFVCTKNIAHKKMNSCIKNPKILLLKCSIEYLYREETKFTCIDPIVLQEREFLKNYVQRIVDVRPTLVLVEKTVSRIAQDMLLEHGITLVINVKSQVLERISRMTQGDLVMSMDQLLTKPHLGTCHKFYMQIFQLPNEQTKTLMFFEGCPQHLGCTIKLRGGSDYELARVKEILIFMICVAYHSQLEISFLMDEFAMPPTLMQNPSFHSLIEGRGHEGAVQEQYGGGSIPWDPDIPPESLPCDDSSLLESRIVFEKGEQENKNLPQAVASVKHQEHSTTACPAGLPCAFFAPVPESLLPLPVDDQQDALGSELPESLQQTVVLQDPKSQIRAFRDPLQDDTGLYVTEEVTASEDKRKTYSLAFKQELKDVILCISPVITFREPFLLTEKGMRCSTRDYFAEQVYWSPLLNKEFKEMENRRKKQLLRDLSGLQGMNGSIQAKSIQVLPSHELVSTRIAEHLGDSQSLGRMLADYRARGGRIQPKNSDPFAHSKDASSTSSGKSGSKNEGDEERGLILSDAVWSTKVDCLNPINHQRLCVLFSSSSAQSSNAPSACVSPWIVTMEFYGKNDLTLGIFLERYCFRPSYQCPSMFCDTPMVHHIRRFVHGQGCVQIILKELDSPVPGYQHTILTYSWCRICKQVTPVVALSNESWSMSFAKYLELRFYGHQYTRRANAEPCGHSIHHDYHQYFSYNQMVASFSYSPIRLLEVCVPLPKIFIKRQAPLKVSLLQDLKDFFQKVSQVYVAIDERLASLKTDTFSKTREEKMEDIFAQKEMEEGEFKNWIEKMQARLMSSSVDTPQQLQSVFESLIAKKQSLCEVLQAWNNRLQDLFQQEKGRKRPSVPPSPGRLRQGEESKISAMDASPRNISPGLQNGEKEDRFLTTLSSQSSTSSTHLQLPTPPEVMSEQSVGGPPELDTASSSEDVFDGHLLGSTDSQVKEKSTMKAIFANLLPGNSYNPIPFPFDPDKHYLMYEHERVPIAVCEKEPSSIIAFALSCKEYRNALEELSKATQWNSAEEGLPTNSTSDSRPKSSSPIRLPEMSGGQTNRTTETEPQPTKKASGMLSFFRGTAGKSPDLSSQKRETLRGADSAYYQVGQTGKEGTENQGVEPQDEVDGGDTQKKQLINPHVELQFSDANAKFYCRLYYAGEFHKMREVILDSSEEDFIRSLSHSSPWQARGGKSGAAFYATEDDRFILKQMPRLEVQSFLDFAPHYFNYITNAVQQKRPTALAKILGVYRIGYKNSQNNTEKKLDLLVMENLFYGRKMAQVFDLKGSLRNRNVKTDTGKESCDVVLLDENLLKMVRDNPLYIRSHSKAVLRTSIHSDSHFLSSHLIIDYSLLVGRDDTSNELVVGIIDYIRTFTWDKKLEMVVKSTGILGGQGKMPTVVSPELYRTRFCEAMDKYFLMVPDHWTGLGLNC
- method: PIKfyve Biochemical Assay (ADP-Glo Kinase assay, GST-PIKFYVE)
- settings: ADP-Glo, 1 hour at room temperature, 10 μM to 3 nM in duplicate; read-out: PIKfyve Biochemistry IC50 (μM)*
In this section we review reported IC50 values for a set of compounds.

Examples with answers:
[[record]]
compound = "COc1c(Nc2ccncc2)nc(N2CCOCC2)nc1-c1cccc(-c2nn(C)cc2C)c1"
endpoint_label = "IC50"
observed_value = "0.01 to 0.1 µM"

[[record]]
compound = "Cn1ccc(-c2cnc3c(c2)-c2nc(N4CCOCC4)nc(Nc4ccncc4)c2OC3)n1"
endpoint_label = "IC50"
observed_value = "0.01 to 0.1 µM"

[[record]]
compound = "COc1c(C(=O)NC2CC2)nc(N2CCOCC2)nc1-c1cccc(-c2ccn(C)n2)c1"
endpoint_label = "IC50"
observed_value = "0.01 to 0.1 µM"

[[record]]
compound = "COc1c(Nc2ccncc2)nc(N2CCOCC2)nc1-c1cncc(-c2ccn(C)n2)c1"
endpoint_label = "IC50"
observed_value = "< 0.01 µM"

[[record]]
compound = "COc1c(Nc2ccncc2)nc(N2CCOCC2)nc1-c1ccnc(-c2ccn(C)n2)c1"
endpoint_label = "IC50"
observed_value = "< 0.01 µM"


The measured IC50 associated with "COc1c(Nc2ccncc2)nc(-c2ccncc2)nc1-c1ccnc(-c2ccn(C)n2)c1" reads < 0.01 µM

----------
- measured.on: PIKfyve (Homo sapiens (Human))
- Sequence (Q9Y2I7 whole entry): as the sequence (Q9Y2I7 whole entry S696N/L932S/Q995L/T998S/S1033A/Q1183K) above, with N696S, S932L, L995Q, S998T, A1033S, K1183Q counted along it
- method: PIKfyve EEA1 Assay (endosomal vesicle enlargement, high content imaging in U2OS cells)
- Type: cell-based
- settings: 3 hours of treatment, activity relative to maximal APY0201 activity
Listed molecules paired with reported IC50

Check out these entries, answers already filled in.
[[record]]
sample_smiles = "COc1ccc(-c2nc(N3CCOCC3)nc(Nc3ccncc3)c2OC)cc1OC"
measured_on = "PIKfyve (Homo sapiens (Human))"
observed_value = "0.1 to 1 µM"

[[record]]
sample_smiles = "COc1c(Nc2ccncc2)nc(N2CCOCC2)nc1-c1cccc(-c2ccn(C)n2)c1"
measured_on = "PIKfyve (Homo sapiens (Human))"
observed_value = "0.01 to 0.1 µM"

[[record]]
sample_smiles = "COc1c(-c2cccc(-n3cccn3)c2)nc(N2CCOCC2)nc1-c1nc(-c2ccccc2)c[nH]1"
measured_on = "PIKfyve (Homo sapiens (Human))"
observed_value = "1 to 10 µM"


Memo: "Cn1ccc(-c2cc3c(cn2)COc2c(Nc4ccncc4)nc(N4CCOCC4)nc2-3)n1" , reported IC50: 0.1 to 1 µM
